# target-entity: T1, cynomolgus soluble urokinase plasminogen activator receptor (suPAR) (cynomolgus, UniProt Q9GK78 23-303, limits assumed)
# T1 construct: Column head says only 'cynomologus'; also called cynomolgus suPAR; cynomolgus uPAR
# T1 sequence (Q9GK78 23-303 limits assumed): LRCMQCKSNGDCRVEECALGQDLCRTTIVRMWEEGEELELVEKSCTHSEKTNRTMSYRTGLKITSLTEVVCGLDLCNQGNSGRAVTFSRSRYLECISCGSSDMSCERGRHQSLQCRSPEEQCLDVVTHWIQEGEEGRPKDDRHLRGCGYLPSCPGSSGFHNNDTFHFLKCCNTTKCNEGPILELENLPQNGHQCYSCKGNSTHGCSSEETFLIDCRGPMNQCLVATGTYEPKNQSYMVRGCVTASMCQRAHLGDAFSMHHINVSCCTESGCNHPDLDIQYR
# measurement-description: BLI (Octet) off-rate screen of scFv clones
observation-type: koff (s⁻¹)
# output: bare number, implied unit s⁻¹

Lab note: measured koff of suPAR_DB04_H09 (scFv, V domains shown, Screened as scFv) VH: QVQLVQSGAEVKKPGASVKVSCKASGGTFSGYYMHWVRQAPGQGLEWVGWITPDSGATAYAQKFQGRVTMTRDTSTSTVYMELSSLRSEDTAVYYCARGYDVDWFVYWGQGTLVTVSS VL: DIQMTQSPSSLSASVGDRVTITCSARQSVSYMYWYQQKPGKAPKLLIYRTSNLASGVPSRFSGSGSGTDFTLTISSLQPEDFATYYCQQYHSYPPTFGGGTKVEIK was 8.8e-05

Lab note: measured koff of suPAR_DB05_D09 (scFv, V domains shown, Screened as scFv) VH: QVQLVQSGAEVKKPGASVKVSCKASGYTFTSYYMHWVRQAPGQGLEWMGWIDPENGNTIYAQKFQGRVTMTRDTSTSTVYMELSSLRSEDTAVYYCARGYDVDWFVYWGQGTLVTVSS VL: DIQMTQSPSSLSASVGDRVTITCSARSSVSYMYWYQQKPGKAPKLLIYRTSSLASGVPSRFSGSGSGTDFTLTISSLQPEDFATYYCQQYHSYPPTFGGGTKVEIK was 0.000666

The origin of these recorded values is patent US20250215104A1.
